The values you see were collected from ChEMBL document CHEMBL2062401.

System: Rattus norvegicus
Test: Antiinflammatory activity in Wistar albino rat assessed as inhibition of carrageenan-induced paw edema at 4 mg/kg, po dosed 1 hr before carrageenan challenge measured after carrageenan-induced inflammation
Assay type: functional
result type: inhibition in vivo at 4 mg/kg (%)

# compound, result type, reading
measured = [
    ("Cc1cc(-c2ccccc2)nn1C(=O)c1nc2c(c(=O)[nH]1)C1CCCN1C(=O)N2c1ccccc1 (centres undefined)", "inhibition in vivo at 4 mg/kg", 65),
    ("O=C(O)Cc1nc2c(c(=O)[nH]1)C1CCCN1C(=O)N2c1ccccc1 (centres undefined)", "inhibition in vivo at 4 mg/kg", 64),
    ("CCOC(=O)Cc1nc2c(c(=O)[nH]1)C1CCCN1C(=O)N2c1ccccc1 (centres undefined)", "inhibition in vivo at 4 mg/kg", 60),
    ("Cc1c(NC(=O)c2nc3c(c(=O)[nH]2)C2CCCN2C(=O)N3c2ccccc2)c(=O)n(-c2ccccc2)n1C (centres undefined)", "inhibition in vivo at 4 mg/kg", 78),
]
